target: Human Nav1.5 (Homo sapiens); construct: expressed in transfected cells; host or cells: HEK293; assay: Nav1.5 Assay (VIPR, HEK293 cells); type: cell-based; settings: HEK293 cells expressing Human Nav1.5; average of replicates; read-out: Nav1.5 IC50
Sequence (Q14524 whole entry): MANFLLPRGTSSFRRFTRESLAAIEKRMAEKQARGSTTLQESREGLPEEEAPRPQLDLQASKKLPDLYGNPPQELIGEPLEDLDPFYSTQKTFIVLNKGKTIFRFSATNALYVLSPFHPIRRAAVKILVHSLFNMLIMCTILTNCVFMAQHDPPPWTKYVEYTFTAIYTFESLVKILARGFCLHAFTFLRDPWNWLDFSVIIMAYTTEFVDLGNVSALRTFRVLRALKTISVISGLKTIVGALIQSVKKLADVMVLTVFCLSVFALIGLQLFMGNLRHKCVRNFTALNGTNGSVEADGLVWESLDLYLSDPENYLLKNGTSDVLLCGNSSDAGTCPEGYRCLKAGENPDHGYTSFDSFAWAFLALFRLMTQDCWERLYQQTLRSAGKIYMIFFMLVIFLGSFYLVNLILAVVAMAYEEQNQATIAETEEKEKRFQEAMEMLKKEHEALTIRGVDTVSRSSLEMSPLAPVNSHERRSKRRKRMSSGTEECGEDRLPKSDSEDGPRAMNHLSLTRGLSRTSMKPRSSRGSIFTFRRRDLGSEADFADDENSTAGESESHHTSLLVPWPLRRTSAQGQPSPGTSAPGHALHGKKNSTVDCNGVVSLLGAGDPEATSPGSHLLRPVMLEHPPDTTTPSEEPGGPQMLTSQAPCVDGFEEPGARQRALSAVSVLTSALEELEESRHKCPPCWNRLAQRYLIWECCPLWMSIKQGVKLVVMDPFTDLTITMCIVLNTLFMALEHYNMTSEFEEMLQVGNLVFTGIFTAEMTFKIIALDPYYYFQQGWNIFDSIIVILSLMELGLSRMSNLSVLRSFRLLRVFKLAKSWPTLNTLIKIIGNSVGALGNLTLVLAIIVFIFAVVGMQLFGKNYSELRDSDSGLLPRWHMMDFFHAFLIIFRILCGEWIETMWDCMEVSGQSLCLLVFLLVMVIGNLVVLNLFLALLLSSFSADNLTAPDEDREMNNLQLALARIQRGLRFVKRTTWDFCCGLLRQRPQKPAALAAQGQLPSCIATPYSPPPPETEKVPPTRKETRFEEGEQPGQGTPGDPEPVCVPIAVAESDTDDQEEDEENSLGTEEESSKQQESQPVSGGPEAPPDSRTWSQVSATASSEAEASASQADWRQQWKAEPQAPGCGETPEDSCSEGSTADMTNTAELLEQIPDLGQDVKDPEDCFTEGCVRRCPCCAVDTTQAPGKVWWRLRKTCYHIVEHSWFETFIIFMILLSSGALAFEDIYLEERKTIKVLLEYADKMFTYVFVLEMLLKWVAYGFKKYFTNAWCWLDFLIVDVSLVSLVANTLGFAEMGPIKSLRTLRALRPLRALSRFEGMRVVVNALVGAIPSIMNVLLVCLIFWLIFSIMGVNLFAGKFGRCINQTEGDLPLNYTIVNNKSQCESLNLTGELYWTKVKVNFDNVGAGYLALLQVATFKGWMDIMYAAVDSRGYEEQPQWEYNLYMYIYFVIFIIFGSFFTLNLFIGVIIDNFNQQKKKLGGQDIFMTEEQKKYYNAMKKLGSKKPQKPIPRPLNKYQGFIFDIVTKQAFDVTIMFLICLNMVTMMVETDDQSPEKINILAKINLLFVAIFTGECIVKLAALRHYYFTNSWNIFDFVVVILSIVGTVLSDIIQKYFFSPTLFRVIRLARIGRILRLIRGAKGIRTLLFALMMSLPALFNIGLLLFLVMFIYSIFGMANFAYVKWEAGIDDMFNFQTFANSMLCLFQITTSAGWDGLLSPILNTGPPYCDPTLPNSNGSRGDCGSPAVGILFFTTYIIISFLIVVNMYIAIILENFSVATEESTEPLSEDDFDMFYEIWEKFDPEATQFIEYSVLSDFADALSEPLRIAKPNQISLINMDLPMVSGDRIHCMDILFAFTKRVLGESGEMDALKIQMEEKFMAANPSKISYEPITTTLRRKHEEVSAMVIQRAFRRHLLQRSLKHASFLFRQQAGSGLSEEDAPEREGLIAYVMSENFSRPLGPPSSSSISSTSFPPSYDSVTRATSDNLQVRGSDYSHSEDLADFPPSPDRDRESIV
// NB: equality with 10 µM counts as 0; only IC50 strictly below is 1

> print(dat)
                                   compound  category
1  Nc1nc(NC(=O)c2conc2C(F)(F)F)ccc1-c1ccccc1OC(F)(F)F         1
2  CCn1nccc1C(=O)Nc1ccc(-c2cc(F)ccc2C(F)(F)F)c(N)n1         0

Consider the record given below.
Below 10 µM on IC50? Entry COCCCOc1ccc(F)cc1-c1ccc(NC(=O)c2conc2C)nc1N 0
